- Assay system: CYP3A4 (Homo sapiens)
- Sequence (P08684 whole entry): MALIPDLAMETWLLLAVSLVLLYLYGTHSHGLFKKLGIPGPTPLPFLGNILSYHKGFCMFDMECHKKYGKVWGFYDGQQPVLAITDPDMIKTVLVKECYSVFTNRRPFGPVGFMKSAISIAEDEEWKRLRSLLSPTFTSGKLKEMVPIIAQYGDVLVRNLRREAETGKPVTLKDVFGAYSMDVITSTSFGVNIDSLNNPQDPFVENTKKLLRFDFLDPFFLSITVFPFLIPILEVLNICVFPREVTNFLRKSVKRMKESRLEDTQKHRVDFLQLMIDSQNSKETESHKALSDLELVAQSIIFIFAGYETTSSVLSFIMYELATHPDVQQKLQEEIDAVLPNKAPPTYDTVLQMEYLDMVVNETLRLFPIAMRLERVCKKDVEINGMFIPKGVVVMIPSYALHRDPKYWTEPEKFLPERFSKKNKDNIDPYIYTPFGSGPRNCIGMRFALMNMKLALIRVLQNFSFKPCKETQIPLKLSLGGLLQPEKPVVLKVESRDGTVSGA
- Test name: Inhibition of human CYP3A4 at 10 uM relative to control
- Type: ADME
Observed property: inhibition at 10 µM

O=c1[nH]ccc2cc(F)c(NS(=O)(=O)c3ccc(N4CC[C@@H](O)C4)s3)cc12
< 10%

----------
- Assay system: CYP2D6 (Homo sapiens, UniProt P10635)
- Sequence (P10635 whole entry): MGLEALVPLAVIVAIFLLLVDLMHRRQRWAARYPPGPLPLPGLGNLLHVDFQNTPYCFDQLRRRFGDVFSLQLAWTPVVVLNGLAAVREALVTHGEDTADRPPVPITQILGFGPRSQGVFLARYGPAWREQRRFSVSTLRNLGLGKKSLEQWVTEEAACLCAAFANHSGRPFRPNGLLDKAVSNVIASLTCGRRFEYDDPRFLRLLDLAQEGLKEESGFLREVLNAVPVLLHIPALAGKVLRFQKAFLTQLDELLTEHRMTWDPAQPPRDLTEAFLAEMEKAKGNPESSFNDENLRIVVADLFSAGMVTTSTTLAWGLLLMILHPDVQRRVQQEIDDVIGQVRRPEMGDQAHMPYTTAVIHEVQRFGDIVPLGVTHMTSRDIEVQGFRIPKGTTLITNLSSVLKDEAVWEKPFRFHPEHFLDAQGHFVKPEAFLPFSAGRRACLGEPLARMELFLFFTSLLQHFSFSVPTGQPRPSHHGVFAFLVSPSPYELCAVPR
- Test name: Inhibition of human CYP2D6 at 10 uM relative to control
- Type: ADME
Observed property: inhibition at 10 µM

O=c1[nH]ccc2cc(F)c(NS(=O)(=O)c3ccc(N4CC[C@@H](O)C4)s3)cc12
< 10%

----------
Recorded pEC50 for the following compounds
- Assay system: Bifunctional purine biosynthesis protein ATIC (Homo sapiens, UniProt P31939)
- Sequence (P31939 whole entry): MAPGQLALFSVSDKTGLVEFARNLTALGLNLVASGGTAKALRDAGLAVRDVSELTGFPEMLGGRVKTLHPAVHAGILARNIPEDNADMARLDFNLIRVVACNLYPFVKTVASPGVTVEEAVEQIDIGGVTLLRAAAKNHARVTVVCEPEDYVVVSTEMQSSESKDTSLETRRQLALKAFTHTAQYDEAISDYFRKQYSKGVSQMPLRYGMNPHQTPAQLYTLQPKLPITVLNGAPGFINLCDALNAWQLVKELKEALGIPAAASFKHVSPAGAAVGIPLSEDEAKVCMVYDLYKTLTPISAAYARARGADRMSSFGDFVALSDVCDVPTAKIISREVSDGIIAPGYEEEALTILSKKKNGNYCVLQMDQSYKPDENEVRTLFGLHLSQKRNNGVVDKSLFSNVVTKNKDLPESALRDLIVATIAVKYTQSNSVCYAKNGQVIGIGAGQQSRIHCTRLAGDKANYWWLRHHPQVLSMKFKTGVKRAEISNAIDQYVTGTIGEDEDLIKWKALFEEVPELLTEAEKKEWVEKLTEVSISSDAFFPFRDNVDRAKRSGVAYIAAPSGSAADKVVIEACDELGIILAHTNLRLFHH
- Test name: Inhibition of AICARFT in human NCI-H460 cells assessed as increase in ZMP levels using low folate media after 16 hrs by LC-MS method
pEC50: −log10 of the molar value.
Observed property: pEC50

O=c1[nH]ccc2cc(F)c(NS(=O)(=O)c3ccc(N4C[C@@H](O)[C@@H](F)C4)s3)cc12 (stereo in doubt)
8.10
O=c1[nH]ccc2cc(F)c(NS(=O)(=O)c3ccc(N4CCC[C@H](O)C4)s3)cc12
7.74
O=c1[nH]ccc2cc(F)c(NS(=O)(=O)c3ccc(N4C[C@@H](O)C(F)(F)C4)s3)cc12
7.57
O=c1[nH]ccc2cc(F)c(NS(=O)(=O)c3ccc(N4CCC[C@@H](O)C4)s3)cc12
7.17
N#Cc1ccc(S(=O)(=O)Nc2cc3c(=O)[nH]ccc3cc2F)cc1
5.74
